Below: a set of entries, each annotated with reported pIC50.
# system-tested: Tyrosine-protein phosphatase non-receptor type 5 (Homo sapiens)
# Sequence (P54829 whole entry): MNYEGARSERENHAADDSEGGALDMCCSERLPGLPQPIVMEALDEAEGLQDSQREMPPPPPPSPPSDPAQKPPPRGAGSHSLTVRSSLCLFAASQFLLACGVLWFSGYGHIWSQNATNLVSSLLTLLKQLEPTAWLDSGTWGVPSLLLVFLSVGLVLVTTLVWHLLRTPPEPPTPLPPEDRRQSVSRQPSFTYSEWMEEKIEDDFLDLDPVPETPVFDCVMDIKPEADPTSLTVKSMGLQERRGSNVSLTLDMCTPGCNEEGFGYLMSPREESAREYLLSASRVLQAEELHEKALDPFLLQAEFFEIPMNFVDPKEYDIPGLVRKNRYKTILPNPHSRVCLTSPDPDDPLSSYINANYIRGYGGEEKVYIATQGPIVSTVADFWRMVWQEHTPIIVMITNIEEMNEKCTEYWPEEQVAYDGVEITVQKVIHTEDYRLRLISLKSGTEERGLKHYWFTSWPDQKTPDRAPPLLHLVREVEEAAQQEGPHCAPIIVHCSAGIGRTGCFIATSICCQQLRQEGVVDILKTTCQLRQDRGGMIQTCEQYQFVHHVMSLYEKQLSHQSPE
# method-description: STEP phosphatase inhibitor potency, dose response, orthogonal assay for STEP inhibitor project, biochemical, colorimetric absorbance (AID 624207)
pIC50: −log10 of the molar value.

- molecule: "O=Cc1cn(-c2ccccc2)nc1-c1cc2cc(O)ccc2oc1=O [SMR000152596]"
  recorded-measurement: "< 4.10"
- molecule: "O=C(O)Cc1cccc(O)c(=O)c1C(=O)O [MLS002703575]"
  recorded-measurement: "< 4.10"
- molecule: "CCOC(=O)CN1C(=O)S/C(=C/c2ccc(OCc3ccc(C(=O)O)cc3)cc2)C1=O"
  recorded-measurement: "< 4.10"
- molecule: "O=C(NN=Cc1ccc(F)cc1)c1cc(-c2ccc3c(c2)OCO3)n[nH]1"
  recorded-measurement: "< 4.10"
- molecule: "CCOC(=O)c1sc2nc3c(SCC(=O)O)cc(C(=O)c4ccccc4O)cn3c(=O)c2c1C [MLS-0266851.0001]"
  recorded-measurement: "< 4.10"
- molecule: "COc1ccccc1Nc1ccc([N+](=O)[O-])cc1N [SMR000260154]"
  recorded-measurement: "< 4.10"
- molecule: "O=C(COc1ccc(/C=N/NC(=O)c2ccc(O)cc2)cc1)Nc1cccc([N+](=O)[O-])c1 [MLS000714465]"
  recorded-measurement: 4.70
- molecule: "CCCCCn1c(N)c(-c2nc3ccccc3o2)c2c([N+](=O)[O-])nn(C)c(=O)c21"
  recorded-measurement: "< 4.10"
- molecule: "NS(=O)(=O)c1ccccc1 [sodium;phenylsulfonylazanide]"
  recorded-measurement: 4.14
- molecule: "O=[N+]([O-])c1ccc(O)c(Nc2ncnc3ccccc23)c1 [4-nitro-2-(4-quinazolinylamino)phenol]"
  recorded-measurement: "< 4.10"

**Query** Consider the molecule C=CC1=C(C(=O)O)N2C(=O)C(NC(=O)Cc3ccccc3)C2SC1 (centres undefined) [MLS000123928] and give its measured pIC50.
**Result** < 4.10

**Query** Now consider "O=C1NN(c2cccc(Br)c2)C(=O)/C1=C\c1ccc(N2CCOCC2)cc1" and answer again.
**Result** < 4.10

**Query** And then "Cc1ccc(S(=O)(=O)c2cnc3ccc(Cl)cc3c2O)cc1" , what is it?
**Result** < 4.10

**Query** Thanks! And "Cc1ccccc1N1CCN(C(=S)c2ccc(-c3cccc([N+](=O)[O-])c3)o2)CC1" ?
**Result** < 4.10

**Query** Also, "CCOc1ccc(CCNC(=O)CS(=O)(=O)Cc2nc(-c3ccc(OC)cc3)oc2C)cc1" please.
**Result** < 4.10

**Query** Could you do the same for C=c1c(O)c(O)c(=C2C(=O)C(=O)C(C)C(=O)C2=O)c(O)c1O (centres undefined) , please?
**Result** < 4.10

**Query** One more molecule: O=C(N/N=C/c1coc2ccccc2c1=O)c1cc2ccccc2o1 [MLS000700471]
**Result** < 4.10

**Query** Please answer likewise for "CCc1ccc(NC2=NC(=O)C(=Cc3ccc(OCC(=O)O)cc3)S2)cc1"
**Result** 4.43
